molecular target: SARS-CoV-2 3CL protease (3CL-PR) (Severe acute respiratory syndrome coronavirus 2, UniProt P0DTC1); experiment: biochemical; format: biochemical; conditions: 25 °C, pH 7.5; time-dependent inhibitors at t ∼ 30 min (steady-state); read-out: Ki * (nM) 3CL-PR
# log10 of Ki per record follows
Short version: log10 scale, Ki, nM.

Q: Looking for the measured log10 of Ki of CC(C)CC(NC(=O)c1cc2ccccc2[nH]1)C(=O)NC(C=O)Cc1ccc[nH]c1=O (stereo not drawn) [Compound 4] , can you help?
A: 1.58

New cases:
Q: Looking for the measured log10 of Ki of COc1cccc2[nH]c(C(=O)N[C@@H](CC(C)C)C(=O)N[C@H](C=O)Cc3cocn3)cc12 [Compound 8] , can you help?
A: 2.09

Q: Try O=CC(Cc1ccc[nH]c1=O)NC(=O)C(CC1CCCCC1)NC(=O)c1cc2ccccc2[nH]1 (stereo not drawn) [Compound 5] next.
A: 1.43

---

target: SARS-CoV-2 3CL protease (3CL-PR) (Severe acute respiratory syndrome coronavirus 2); experiment: biochemical; assay type: biochemical; details: 25 °C, pH 7.5; time-dependent inhibitors at t ∼ 30 min (steady-state); read-out: Ki * (nM) 3CL-PR
Property: Ki (nM)
Form entry: value (nM) — number only.

Q: Looking for the measured Ki of COc1cccc2[nH]c(C(=O)N[C@@H](CC(C)C)C(=O)N[C@@H](C[C@@H]3CCNC3=O)C(=O)CO)cc12 [PF-835231, reference compound] , can you help?
A: 0.23

New cases:
Q: Looking for the measured Ki of CC(C)C[C@H](NC(=O)OCc1ccccc1)C(=O)N[C@@H](CC1CCCCC1)C(=O)N[C@H](C=O)Cc1ccc[nH]c1=O [Compound 3] , can you help?
A: 9

Q: Try COc1cccc2[nH]c(C(=O)NC(CC(C)C)C(=O)NC(C=O)Cc3ccc[nH]c3=O)cc12 (stereo not drawn) [Compound 6] next.
A: 2.6
